Listed compounds paired with reported Population Membrane Permeable-Phenotype (%)
- System: U2OS
- Assay name: Multiplex assay against U2OS
- Assay type: toxicity, cell-based
- Experimental setup: human, 48 h, 1 µM, compound concentration 1 uM, replicate 1
Write down the numeric answer in % and omit the unit.

Please review the entries below; each comes with its answer.
O=C(O)c1ccc2cc(-c3ccc(O)c(C45CC6CC(CC(C6)C4)C5)c3)ccc2c1 [O-DEMETHYLATED ADAPALENE]; 7
Cc1nc(Cc2cccc(C(F)(F)F)c2)sc1-c1ccc(C(N)=O)nc1 [TP-024n]; 2

QUERY: Given the compound CCc1cc2c(cc1CC)CC(NC[C@H](O)c1ccc(O)c3[nH]c(=O)ccc13)C2 [INDACATEROL] , what is its reported Population Membrane Permeable-Phenotype (%)?
RESULT: 2

QUERY: Given the compound `Nc1nc2c(c(N3CCNCC3)n1)CCC1=C2[C@@H]2CCCC[C@@H]2O1` , what is its reported Population Membrane Permeable-Phenotype (%)?
RESULT: 3

---

- System: Fibroblast
- Assay name: Multiplex assay against human fibroblast
- Type: toxicity, cell-based
- Experimental setup: 12 h, 1 µM, compound concentration 1 uM, replicate 2
Listed molecules paired with reported Total Cell Count
# print the numeric value only

Please review the entries below; each comes with its answer.
CNC(=O)c1cc(Oc2ccc(NC(=O)Nc3cc(C(C)(C)C)nn3-c3ccc4ncccc4c3)c(F)c2)ccn1 [REBASTINIB]; 75
CC(C)Oc1ccc(C(=O)N[C@H](CNC(=O)CN(C)C)Cc2ccc(-c3cn4cccc([C@H](C)O)c4n3)cc2)cc1Cl [GSK-923295A]; 74
O=C(O)c1ccc2cc(-c3ccc(O)c(C45CC6CC(CC(C6)C4)C5)c3)ccc2c1 [O-DEMETHYLATED ADAPALENE]; 62

QUERY: Given the molecule CN(C)CCOc1ccc(-c2nc(-c3ccncc3)c(-c3ccc4c(c3)CC/C4=N\O)[nH]2)cc1 [SB590885] , what is its reported Total Cell Count?
RESULT: 833

---

- Test system: U2OS
- Assay name: Multiplex assay against U2OS
- Assay type: toxicity, cell-based
- Experimental setup: human, 12 h, 10 µM, compound concentration 10 uM, replicate 2
Listed compounds paired with reported Population Apoptotic (%)
Write down the numeric answer in % and omit the unit.

Please review the entries below; each comes with its answer.
CCOc1cc2ncc(C#N)c(Nc3ccc(OCc4cccc(F)c4)c(Cl)c3)c2cc1NC(=O)/C=C/CN(C)C [HKI-357]; 69
Cl.Cl.NC1(c2ccc(-c3nc4ccn5c(=O)[nH]nc5c4cc3-c3ccccc3)cc2)CCC1; 11
CN(C)CCOc1ccc(-c2nc(-c3ccncc3)c(-c3ccc4c(c3)CC/C4=N\O)[nH]2)cc1 [SB590885]; 37

Next item in the queue.
QUERY: Given the compound N#Cc1cnc(Nc2cc(NC[C@H]3CNCCO3)c(C(F)(F)F)cn2)cn1 [SRA-737] , what is its reported Population Apoptotic (%)?
RESULT: 23

---

Listed compounds paired with reported Total Cell Count
- Tested on: HEK-293T
- Assay name: Multiplex assay against HEK293T
- Type: toxicity, cell-based
- Experimental setup: human, 24 h, 1 µM, compound concentration 1 uM, replicate 1
# print the numeric value only

Please review the entries below; each comes with its answer.
CCCn1c(=O)c2[nH]c(C34CC5CC(CC3C5)C4)nc2n(CCC)c1=O [ROLOFYLLINE]; 212
COc1cc2c(NC3CCN(C(C)C)CC3)nc(N3CCC(F)(F)CC3)nc2cc1OCCCN1CCCC1; 348
CCn1c(-c2nonc2N)nc2cnc(Oc3cccc(NC(=O)c4ccc(OCCN5CCOCC5)cc4)c3)cc21 [GSK-269962A]; 254
Cc1nc(Cc2cccc(C(F)(F)F)c2)sc1-c1ccc(C(N)=O)nc1 [TP-024n]; 429

Next item in the queue.
QUERY: HEK-293T / Total Cell Count / `COc1cc(N2CCC(N(C)C)CC2)ccc1Nc1ncc(Cl)c(Nc2ccccc2P(C)(C)=O)n1` : value?
RESULT: 667

---

- Tested on: Fibroblast
- Assay name: Multiplex assay against human fibroblast
- Type: toxicity, cell-based
- Experimental setup: 24 h, 1 µM, compound concentration 1 uM, replicate 1
Listed compounds paired with reported Population Mitotic Cells (%)
Write down the numeric answer in % and omit the unit.

Please review the entries below; each comes with its answer.
CC(C)(C)c1cnc(CSc2cnc(NC(=O)C3CCNCC3)s2)o1; 45
Cc1cc2c(cc1N1C(=O)c3cccc4c(CCCO)ccc(c34)C1=O)n(C)c(=O)n2C; 53

QUERY: Given the compound `N#Cc1cnc(Nc2cc(NC[C@H]3CNCCO3)c(C(F)(F)F)cn2)cn1` , what is its reported Population Mitotic Cells (%)?
RESULT: 50

---

- Test system: HEK-293T
- Assay name: Multiplex assay against HEK293T
- Type: toxicity, cell-based
- Experimental setup: human, 24 h, 1 µM, compound concentration 1 uM, replicate 2
Measurement kind: Population Mitochondria Different-Phenotype (%)
Write down the numeric answer in % and omit the unit.

Please review the entries below; each comes with its answer.
Nc1ccc(C(=O)Nc2cccc(-c3nc(N4CCOCC4)c4oc5ncccc5c4n3)c2)cn1; 68
CC(=O)c1cc(-c2cc(C(=O)NC3CC3)ccc2C)c2ncccn12; 16

Next item in the queue.
QUERY: Given the compound `COc1ccc(NS(=O)(=O)c2sc3ccc(Cl)cc3c2C)cc1N1CCNCC1.Cl` , what is its reported Population Mitochondria Different-Phenotype (%)?
RESULT: 36

---

Listed compounds paired with reported Population Tubulin-Different-Phenotype (%)
- Tested on: HEK-293T
- Assay name: Multiplex assay against HEK293T;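 on Population Tubulin-Different-Phenotype (%): share of the cells with healthy nuclei that show this phenotype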
- Assay type: toxicity, cell-based
- Experimental setup: human, 24 h, 10 µM, compound concentration 10 uM, replicate 2
Write down the numeric answer in % and omit the unit.

QUERY: Given the compound CN(C)CCOc1ccc(-c2nc(-c3ccncc3)c(-c3ccc4c(c3)CC/C4=N\O)[nH]2)cc1 [SB590885] , what is its reported Population Tubulin-Different-Phenotype (%)?
RESULT: 10

QUERY: Given the compound `COc1cc2c(Nc3ccc(NC(=O)c4ccccc4)cc3)ncnc2cc1OCCCN1CCOCC1` , what is its reported Population Tubulin-Different-Phenotype (%)?
RESULT: 15

QUERY: Given the compound `Nc1nc2c(c(N3CCNCC3)n1)CCC1=C2[C@@H]2CCCC[C@@H]2O1` , what is its reported Population Tubulin-Different-Phenotype (%)?
RESULT: 100

QUERY: Given the compound CC(=O)O[C@H]1C(=O)[C@@]2(C)[C@H]([C@H](OC(=O)c3ccccc3)[C@]3(O)C[C@H](OC(=O)[C@H](O)[C@@H](NC(=O)c4ccccc4)c4ccccc4)C(C)=C1C3(C)C)[C@]1(OC(C)=O)CO[C@@H]1C[C@@H]2O [PACLITAXEL] , what is its reported Population Tubulin-Different-Phenotype (%)?
RESULT: 2

QUERY: Given the compound `Cc1cc2c(cc1N1C(=O)c3cccc4c(CCCO)ccc(c34)C1=O)n(C)c(=O)n2C` , what is its reported Population Tubulin-Different-Phenotype (%)?
RESULT: 90

QUERY: Given the compound CC(C)(C)c1cnc(CSc2cnc(NC(=O)C3CCNCC3)s2)o1 [BMS-387032] , what is its reported Population Tubulin-Different-Phenotype (%)?
RESULT: 61

QUERY: Given the compound `c1ccc2oc(-c3csc(C4CCN(Cc5nc6ncccc6[nH]5)CC4)n3)cc2c1` , what is its reported Population Tubulin-Different-Phenotype (%)?
RESULT: 9

QUERY: Given the compound Cc1nc(Cc2cccc(C(F)(F)F)c2)sc1-c1ccc(C(N)=O)nc1 [TP-024n] , what is its reported Population Tubulin-Different-Phenotype (%)?
RESULT: 50

QUERY: Given the compound `CNc1oc(-c2cccc3ccccc23)nc1C#N` , what is its reported Population Tubulin-Different-Phenotype (%)?
RESULT: 3

---

- Tested on: U2OS
- Assay name: Multiplex assay against U2OS
- Type: toxicity, cell-based
- Experimental setup: human, 24 h, 10 µM, compound concentration 10 uM, replicate 1
Measurement kind: Population Fragmented Nuclei (%)
Write down the numeric answer in % and omit the unit.

Please review the entries below; each comes with its answer.
COc1cc2c(NC3CCN(C(C)C)CC3)nc(N3CCC(F)(F)CC3)nc2cc1OCCCN1CCCC1; 14
Cc1cc2c(cc1N1C(=O)c3cccc4c(CCCO)ccc(c34)C1=O)n(C)c(=O)n2C; 15
CNc1oc(-c2cccc3ccccc23)nc1C#N; 50
CCC(=O)O[C@]1(C(=O)SCF)[C@H](C)C[C@H]2[C@@H]3C[C@H](F)C4=CC(=O)C=C[C@]4(C)[C@@]3(F)[C@@H](O)C[C@@]21C [FLUTICASONE PROPIONATE]; 17
Nc1nc2c(c(N3CCNCC3)n1)CCC1=C2[C@@H]2CCCC[C@@H]2O1; 11
c1ccc2oc(-c3csc(C4CCN(Cc5nc6ncccc6[nH]5)CC4)n3)cc2c1; 5
CC(C)(C)c1cnc(CSc2cnc(NC(=O)C3CCNCC3)s2)o1; 22
CN(C)CCOc1ccc(-c2nc(-c3ccncc3)c(-c3ccc4c(c3)CC/C4=N\O)[nH]2)cc1; 5
CC(=O)c1cc(-c2cc(C(=O)NC3CC3)ccc2C)c2ncccn12; 15
CNC(=O)c1cc(Oc2ccc(NC(=O)Nc3cc(C(C)(C)C)nn3-c3ccc4ncccc4c3)c(F)c2)ccn1; 17

Next item in the queue.
QUERY: Given the compound `Cc1cn(-c2cc(NC(=O)c3ccc4c(c3)CN(c3cncnc3)C[C@@H]4C)cc(C(F)(F)F)c2)cn1` , what is its reported Population Fragmented Nuclei (%)?
RESULT: 6
